# protocol: viability profiling in MM1S myeloma cells – cell-based, resazurin fluorescence, basal, 24 h, PK04 Diversity Set, profiling panel (AID 1174);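 note: MM1S multiple myeloma cell line; test concentration not given here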
# assay_conditions: higher = more signal, called active from +8 up or from −8 down
readout: z-score
Quick one: just the number, no unit, thanks!

Some solved cases for reference:
Cc1cc(C)c(C(O)C2C=CC3C(=O)N(c4ccccc4)C(=O)C3N2Nc2ccccc2F)c(C)c1 (stereo unspecified)	-0.371
NC(=O)NCC#Cc1ccc2c(c1)[C@]1(C(=O)N2)[C@H](c2ccccc2OCCO)N2[C@H](c3ccccc3)[C@H](c3ccccc3)OC(=O)[C@H]2[C@@H]1C(=O)NC[C@H](O)c1ccccc1	1.62
COCCOC(=O)N1C(=O)[C@@]2(c3cc(C#CCCO)ccc31)[C@H](c1ccc(OCCO)cc1)N1[C@H](c3ccccc3)[C@H](c3ccccc3)OC(=O)[C@H]1[C@@H]2C(=O)Nc1nc2ccccc2s1	-0.344
COC(=O)c1c(CC[C@@H](CO)NC(=O)N2CCC[C@H]2Cn2cc(C3(O)CCCCC3)nn2)oc(C(C)=O)c1C(=O)OC	-0.66
CC(C)C(CO)N1C(=O)[C@@H]2[C@H]3C(=O)OCC=C[C@H]3OC23C=CCN(c2ccc(Cl)cc2)C(=O)[C@@H]13 (stereo partly specified)	0.679

Let us move to another entry and its z-score.
Looking for the measured z-score of COC(=O)[C@@]1(Cc2ccc(OC)cc2)[C@H]2c3cc(C(=O)N(C)C)n(Cc4ccc(C)o4)c3C[C@H]2CN1C(=O)c1ccccc1 , can you help?
-3.45

====

# protocol: growth of efflux-deficient E. coli DRC39 – strain DRC39, OD650, 48 h, E. coli filamentation inducers, primary screen (AID 1179);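 note: screen aims at cell division blockers that make cells filament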
# assay_conditions: E. coli DRC39 delta-acrAB growth, higher = more signal, called active from +8 up or from −8 down
We use -0.3 as the dividing line for z-score: on or above the line is Criterion met, below is Criterion not met.

COc1cc2c(cc1O)C=[N+](Cc1sc3ccccc3c1Cl)CC2	Criterion met
NCCCCCNC(=O)[C@H]1C[C@H]2C(=O)N3CCC[C@H]3C(=O)N2[C@H]1c1cccc(OCCO)c1	Criterion not met
COC(=O)[C@@]1(Cc2ccc(F)cc2)[C@H]2c3cc(C(=O)N(C)C)n(Cc4ccc(OC(F)(F)F)cc4)c3C[C@H]2CN1C(=O)c1ccccc1	Criterion not met
CC(C)[Si]1(C(C)C)OCc2cc(C3CC3)nc(-c3ccc(Oc4ccccc4)cc3)c21	Criterion met
COCCCNC(=O)[C@@]1(Sc2ccc(C)cc2)CC(=O)N(C2Cc3ccccc3C2)[C@@H]1c1ccc(CO)cc1	Criterion met

Could you verify whether the entry C#Cc1cc2ccccc2oc1=O shows z-score of no less than -0.3?
Criterion not met

How about CCOC(=O)C1=CC[C@@H](c2ccccc2F)N(S(=O)(=O)c2ccc(C)cc2)[C@H]1c1ccccc1 ?
Criterion not met

How about CCOC(=O)C[C@H]1[C@H](OC(=O)c2ccc(C(=O)c3ccccc3)cc2)[C@@H](NC(=O)c2ccc3ccccc3n2)c2cc(OCCCO)ccc2N1C(=O)Cc1ccc(OC)cc1 ?
Criterion not met

====

# protocol: calcein-AM signal in unstimulated myeloma cells – cell-based, calcein-AM fluorescence, 48 h, PK04 Diversity Set, profiling panel (AID 1166);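 note: cells grown under basal conditions without added stimulus; test concentration not given here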
# assay_conditions: RPMI8226 myeloma viability, higher = more signal
Entries and their measured z-score follow.
Quick one: just the number, no unit, thanks!

Some solved cases for reference:
CC(C)[Si](C#C[Si](C(C)C)(C(C)C)C(C)C)(O[C@H](c1ccccc1)c1cn(Cc2ccccc2)nn1)C(C)C	0.798
C=CC[C@@H](OC(=O)Nc1ccc(OC)cc1)c1ccc(O)c(F)c1	-2.51
CC(=O)N1CC2(CC2)CC1c1ccccc1 (stereo not given)	-1.14
COC(=O)[C@@H]1N=C(c2ccc(OCCCO)cc2)O[C@@H]1c1ccccc1	0.474
CC(CO)N1C(=O)[C@@H]2[C@H]3C(=O)OCC=C[C@H]3OC23C=CCN(Cn2nnc4ccccc42)C(=O)[C@@H]13 (stereo not given in full)	-0.637

Looking for the measured z-score of COC(=O)[C@@]1(Cc2ccc(OC)cc2)[C@H]2c3cc(C(=O)N4CCCC4)n(CCc4c[nH]c5ccc(OC)cc45)c3C[C@H]2CN1C(=O)c1ccccc1 , can you help?
-3.62

How about O=C1N(CCS(=O)(=O)c2ccccc2)c2ccccc2[C@H]2OC(c3ccc(OCCCO)cc3)=N[C@@]12Cc1ccccc1 ?
-2.65

How about C=C(COC)C(=O)CC[C@@H](OC(C)=O)c1cccc(OCCO)c1 ?
-0.496

How about COCCOC(=O)N1C(=O)[C@@]2(c3ccccc31)[C@H](c1ccc(O)cc1)N1[C@H](c3ccccc3)[C@H](c3ccccc3)OC(=O)[C@H]1[C@@H]2C(=O)N1CCN(c2ncccn2)CC1 ?
-0.42

How about COCCOC(=O)N1C(=O)[C@@]2(c3cc(C#CC4=CCCCC4)ccc31)[C@H](C(=O)Nc1nc3ccccc3s1)[C@H]1C(=O)O[C@H](c3ccccc3)[C@H](c3ccccc3)N1[C@@H]2c1ccc(O)cc1 ?
-1.62

How about CC(C)C(CO)N1C(=O)[C@@H]2[C@H]3C(=O)OCC=C[C@H]3OC23C=CCN(c2ccc(Cl)cc2)C(=O)[C@@H]13 (stereo not given in full) ?
-0.356

How about COc1ccc(C#Cc2ccc3c(c2)[C@]2(C(=O)N3)[C@H](C(=O)O)[C@H]3C(=O)O[C@H](c4ccccc4)[C@H](c4ccccc4)N3[C@@H]2c2ccc(O)cc2)cc1 ?
-3.91

How about COc1cccc(C)c1NC(=O)O[C@H]1[C@H](OC(=O)Nc2ccc3c(c2)OCO3)[C@@H](OC(=O)Nc2ccc3c(c2)OCO3)[C@@H](OC)O[C@@H]1CO ?
-0.815

How about O=C1C2C=CC(C(O)c3cccc(O)c3)N(Nc3ccc([N+](=O)[O-])cc3)C2C(=O)N1c1ccccc1 (stereo not given) ?
0.45

How about C=CCN1C(=O)[C@]2(CCS(=O)(=O)c3ccccc3)N=C(c3ccc(OCCCO)cc3)O[C@@H]2c2ccccc21 ?
0.716

How about CC1CC/C=C\[C@H]2OC34C=CCN(c5ccc6ccccc6c5)C(=O)[C@H]3N(CCCO)C(=O)[C@@H]4C2C(=O)O1 (stereo not given in full) ?
-0.143

How about O=C(NCCN1CCOCC1)[C@@H]1c2ccccc2C(=O)N(C2Cc3ccccc3C2)[C@H]1c1ccc(CO)cc1 ?
1.35

How about CC(C)c1ccc(NN2C(C(O)c3ccc(F)cc3)C=CC3C(=O)N(c4ccccc4)C(=O)C32)cc1 (stereo not given) ?
-1.46

How about CN(C)C(=O)[C@]1(Cc2ccccc2CN=[N+]=[N-])N=C(c2ccc(OCCCO)cc2)O[C@@H]1c1ccccc1 ?
-4.37

How about CCCCC(O)C1C=CC2C(=O)N(C)C(=O)C2N1N(c1ccccc1)c1ccccc1 (stereo not given) ?
-0.938

How about COc1cccc(C)c1NC(=O)O[C@H]1[C@H](OC(=O)Nc2ccccc2-c2ccccc2)[C@H](OC(=O)Nc2ccccc2-c2ccccc2)[C@@H](OC)O[C@@H]1CO ?
-2.77

How about CCOC(=O)C1=CC[C@@H](c2ccccc2F)N(S(=O)(=O)c2ccc(C)cc2)[C@H]1c1ccccc1 ?
-0.413

How about CCCC=C(CCC)[C@@H](NS(=O)(=O)c1ccc(C(F)(F)F)cc1)c1ccccc1 ?
-1.86

How about COC(=O)C1=CC(CCCO)=CC(c2cccs2)N(Cc2cccc(OC(F)(F)F)c2)C=C1C(=O)OC (stereo not given) ?
-3.76
